target: PCSK9 (Homo sapiens); construct: biotin (biotinylated); assay: PCSK9 Alexa FRET Standard assay (displacement of AlexaFluor647-tagged cyclic peptide Reagent A); assay type: binding; conditions: 0.5 nM PCSK9, 20 nM AF cyclic peptide Reagent A
Sequence (Q8NBP7 153-692): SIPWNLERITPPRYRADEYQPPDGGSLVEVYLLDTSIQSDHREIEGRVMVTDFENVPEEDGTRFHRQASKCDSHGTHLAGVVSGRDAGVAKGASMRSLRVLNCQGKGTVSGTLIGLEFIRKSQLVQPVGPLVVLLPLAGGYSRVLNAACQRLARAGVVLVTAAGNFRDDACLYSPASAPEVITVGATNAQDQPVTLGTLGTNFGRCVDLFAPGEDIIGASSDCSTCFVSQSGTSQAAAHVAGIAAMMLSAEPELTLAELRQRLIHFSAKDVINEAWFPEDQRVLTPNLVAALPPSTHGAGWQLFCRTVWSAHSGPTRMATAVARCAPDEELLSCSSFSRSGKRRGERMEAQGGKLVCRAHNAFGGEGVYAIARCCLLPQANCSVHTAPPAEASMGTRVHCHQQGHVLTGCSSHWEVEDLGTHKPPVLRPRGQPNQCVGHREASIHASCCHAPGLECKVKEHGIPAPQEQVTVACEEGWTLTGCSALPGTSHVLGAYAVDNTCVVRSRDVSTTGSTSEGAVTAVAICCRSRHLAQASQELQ
*1 amine or outer side, *2 acyl side, *3 side chain or, on linkers, in order; H or OH if unused. Where a SMILES comes first, the peptide text is derived from it. Bridges are numbered along the chain shown (N, C = ends). [ ]: non-standard residue; d: D form. Trp(7-aza) = N[C@@H](Cc1c[nH]c2ncccc12)C(=O)O; mXylylene = c1cc(C[*:1])cc(C[*:2])c1; αMeOrn = C[C@](N)(CCCN)C(=O)O; Tle = CC(C)(C)[C@H](N)C(=O)O; αMeV = CC(C)[C@](C)(N)C(=O)O; Nva = CCC[C@H](N)C(=O)O; Aib = CC(C)(N)C(=O)O; Mpa = O=C(O)CCS
PARAMETER: IC50

For orientation, consider the following solved cases.
MOLECULE	DATA_VALUE
CC(C)[C@]1(C)NC(=O)[C@H](Cc2ccc(O)cc2)NC(=O)[C@H](C)NC(=O)[C@](C)(CCCN)NC(=O)[C@H](Cc2c[nH]c3ncccc23)NC(=O)[C@H]([C@@H](C)O)NC(=O)[C@@H]2CCCN2C(=O)[C@H](Cc2ccc(O)cc2)NC(=O)[C@H](C(C)(C)C)NC(=O)CCSCc2cccc(c2)CSC[C@H](C(N)=O)NC(=O)[C@H]([C@@H](C)O)NC1=O [Compound 025] ([Mpa][Tle]YPT[Trp(7-aza)][αMeOrn]AY[αMeV]T[dC]-NH2; linker 1-12 via mXylylene)	1 to 100 nM
CC(C)[C@](C)(NC(=O)[C@H](Cc1ccc(O)cc1)NC(=O)[C@H](C)NC(=O)C(C)(C)NC(=O)[C@H](Cc1c[nH]c2ncccc12)NC(=O)[C@@H](NC(=O)[C@@H]1CCCN1C(=O)[C@@H]1Cc2ccc(O)c(c2)CCCC[C@H](N)C(=O)N[C@@H](C(C)(C)C)C(=O)N1)[C@@H](C)O)C(N)=O [Compound 032]	1 to 100 nM

Would you kindly look at the next entry?
get_value(item= CCC[C@@H]1NC(=O)[C@H](Cc2ccc(O)cc2)NC(=O)[C@@H]2CCC(=O)NCCCC[C@H](NC(=O)[C@H](Cc3ccc(O)cc3)NC(=O)[C@H](C(C)(C)C)NC(=O)CCSCc3cccc(c3)CSC[C@@H](C(N)=O)NC(=O)[C@H]([C@@H](C)O)NC1=O)C(=O)N[C@@H]([C@@H](C)O)C(=O)N[C@@H](Cc1c[nH]c3ncccc13)C(=O)NC(C)(C)C(=O)N2 [Compound 110] ([Mpa][Tle]YKT[Trp(7-aza)][Aib]EY[Nva]TC-NH2; linker 1-12 via mXylylene; lactam 4-8) , readout=IC50) returns 1 to 100 nM
